Each entry below lists one item and its recorded Tm value.
Assay Overview: melting temperature; fluorescence melt of hairpins on a sequencing array, two-state fit, raised by 9.35 °C to match UV melts
Run Conditions: sodium 0.088 M
Measured Quantity: Tm

>>> result("ATGGGGAAACCCAT (((((....)))))")
"47.3 °C"
>>> result("GTTGACGGAAACGTTAGC (.(.(((....))).).)")
"29.9 °C"
>>> result("GGTCCCCGAAAGGGAACC (((.(((....))).)))")
"53 °C"
>>> result("GTCGTCCCGAAAGGGGAC (((..(((....))))))")
"45.1 °C"
>>> result("GCGGTCGAAAGACCCCGC ((((((....)))..)))")
"47.5 °C"
>>> result("GCGTTTGACGC ((((...))))")
"57.1 °C"
>>> result("GCTTCGCGAAAGCTCAGC (((..((....))..)))")
"44.5 °C"
>>> result("GCGAACACTCGC ((((....))))")
"45 °C"
>>> result("GGCGGTCGAAAGACGCC (((.(((....))))))")
"67.3 °C"
>>> result("GATCCCCACGGGGATC ((((((....))))))")
"66.4 °C"
>>> result("GTCAGTGGAAACGCTGAC (((((.(....).)))))")
"54.2 °C"
>>> result("GTGATACGAAAGTAACAC (((.(((....))).)))")
"47.6 °C"
>>> result("GCGCCGCGAAAGCGCCGC (((.(((....))).)))")
"65.2 °C"
>>> result("GATCTTGTCTAAGATC ((((((....))))))")
"48.4 °C"
>>> result("GGGAACGGAAACGCTCCC ((((.((....)).))))")
"52.1 °C"
>>> result("GGCTAGGGAAACCCAGCC ((((.((....)).))))")
"52.1 °C"
>>> result("GGCGACGGAAACACCGCC ((((..(....)..))))")
"44.5 °C"
>>> result("GTCCTTTCGAAAGAAGAC (((..(((....))))))")
"28.5 °C"
>>> result("GCTGTGCGAAAGCACCGC ((.((((....)))).))")
"58.7 °C"
>>> result("GCCTGCGAAAGCAAGGGC ((((((....)))..)))")
"61.3 °C"
>>> result("GCATGCGAAAGCAACTGC ((((((....)))..)))")
"40.2 °C"
>>> result("GGGACAGCGAAAGCTCCC (((..(((....))))))")
"46.1 °C"
>>> result("GGTCACTCGAAAGAGACC (((..(((....))))))")
"40.8 °C"
>>> result("GGAGCTGAAAAGCTCC ((((((....))))))")
"68.9 °C"
>>> result("GCGACAGATCGC ((((....))))")
"47.9 °C"
>>> result("GATCAACACGTTGATC ((((((....))))))")
"53.6 °C"
>>> result("GATTTCCGAAAGGATATC (((.(((....))).)))")
"42 °C"
>>> result("GACGGACCGAAAGGTGTC (((..(((....))))))")
"41.3 °C"
>>> result("GTGACCGAAAGGTAACAC ((((((....)))..)))")
"47.1 °C"
>>> result("GCTTGGCGAAAGCCGGGC ((..(((....)))..))")
"59.2 °C"
>>> result("GATCCCTACGGGATC ((((((...))))))")
"67.9 °C"
>>> result("GATCACTACTGTGATC ((((((....))))))")
"56.5 °C"
>>> result("GTTGAACGAAAGTTGAAC (((.(((....))).)))")
"38.1 °C"
>>> result("GCTGAATCGAAAGATAGC (((..(((....))))))")
"31.9 °C"
>>> result("GATCGATGCGTCGATC ((((((....))))))")
"57 °C"
>>> result("GATCCTTCGAGGATC ((((((...))))))")
"54.4 °C"
>>> result("GATCTTGCCGAAGATC ((((((....))))))")
"46.1 °C"
>>> result("GTGAGTCGAAAGACACAC (((.(((....))).)))")
"53.8 °C"
>>> result("GAAACACGAAAGTGTTC (((.(((....))))))")
"44 °C"
>>> result("GTCAGGGGAAACTCTGGC (.(((.(....).))).)")
"36.4 °C"
>>> result("GATCAACACTTGATC ((((((...))))))")
"40.5 °C"
>>> result("CTTCAGAAATGAAG (((((....)))))")
"36 °C"
>>> result("GGCCAAGGAAACTCAGCC (((..((....))..)))")
"30.2 °C"
>>> result("GTTAATGAAAATTAAC ((((((....))))))")
"40.1 °C"
>>> result("GTGTTGGGAAACCAGCAC (((.(((....))).)))")
"51.4 °C"
>>> result("GTGTGGGGAAACTCGCAC (((.(.(....).).)))")
"42.8 °C"
>>> result("GACCCGACGAAAGTCGTC (((..(((....))))))")
"25.9 °C"
>>> result("GTCGAGCGAAAGCTGAC (((.(((....))))))")
"57.7 °C"
>>> result("GCGCAGCGAAAGCAGGGC ((.(.((....)).).))")
"51.2 °C"
>>> result("GACCACGGAAACGTGACC (..((((....))))..)")
"29.2 °C"
>>> result("GCATAGCGAAAGCTCAGC ((..(((....)))..))")
"30.6 °C"

###

Assay Overview: folding enthalpy; higher = less favourable; fluorescence melt of hairpins on a sequencing array, two-state fit
Run Conditions: sodium 0.088 M
Measured Quantity: folding enthalpy (kcal/mol)

>>> recorded_number("GGCGGTGGAAACGCTGCC (((.(.(....).).)))")
-21.9
>>> recorded_number("GATCCAGACGTGGATC ((((((....))))))")
-45.1
>>> recorded_number("GGTGATCCGAAAGGAACC (((..(((....))))))")
-18.7
>>> recorded_number("GCCGTGCGAAAGCCCAGC ((.(.((....)).).))")
-10.3
>>> recorded_number("GATCGGAATACCGATC ((((((....))))))")
-33.1
>>> recorded_number("GAATCCCGAAAGGGCTTC (((.(((....))).)))")
-19.1
>>> recorded_number("GCGTGAGGAAACTCGTGC ((..(((....)))..))")
-28.7
>>> recorded_number("GCAAGGCGAAAGCACTGC (((..((....))..)))")
-19.7
>>> recorded_number("GAATTCGGAAACGAATCC (.(((((....))))).)")
-16.6
>>> recorded_number("GCGCCGCGAAAGCAGGGC ((.(.((....)).).))")
-13.1
>>> recorded_number("GAGTGCGGAAACGCGTTC ((..(((....)))..))")
-13
>>> recorded_number("GCCCGGCGAAAGCCATGC ((..(((....)))..))")
-8.55

###

Assay Overview: folding enthalpy; higher = less favourable; fluorescence melt of hairpins on a sequencing array, two-state fit
Run Conditions: sodium 0.088 M
Think of -20 kcal/mol as a floor: if folding enthalpy stands on it or above, it is 1 (yes); beneath it, 0 (no).

>>> label_value("GCGTGACACGC ((((...))))")
"0 (no)"
>>> label_value("GAATCCGAAAGGATTTTC ((((((....)))..)))")
"1 (yes)"
>>> label_value("GAATGGCGAAAGCCGTTC (((.(((....))).)))")
"0 (no)"
>>> label_value("GAAGCGGGAAACCACTTC ((((.((....)).))))")
"0 (no)"
>>> label_value("GCAACGCGAAAGCGCTGC (((.(((....))).)))")
"0 (no)"
>>> label_value("GATCCCTTACGGGATC ((((((....))))))")
"0 (no)"
>>> label_value("GATCTTCAGCAAGATC ((((((....))))))")
"0 (no)"
>>> label_value("GCGGTCGAAAGACCCCGC ((((((....)))..)))")
"1 (yes)"
>>> label_value("GCTGGCACGAAAGTGAGC (((..(((....))))))")
"1 (yes)"
>>> label_value("GAGTTGCGAAAGCATCTC (((.(((....))).)))")
"0 (no)"
>>> label_value("GATCCCCCTGGGATC ((((((...))))))")
"0 (no)"
>>> label_value("GACCAAGGAAACTCGGTC ((((.((....)).))))")
"0 (no)"
>>> label_value("GCGAGCGGTCGC ((((....))))")
"0 (no)"
>>> label_value("GAGTTCCGAAAGGAGCTC (((.(((....))).)))")
"0 (no)"
>>> label_value("CGATGCGGAAACGCTCG (((.(((....))))))")
"0 (no)"
>>> label_value("GTACGCGAAAGCGCATAC ((((((....)))..)))")
"1 (yes)"
>>> label_value("GATCAATAATTTGATC ((((((....))))))")
"0 (no)"
>>> label_value("GAACACGAAAGTGCCTTC ((((((....)))..)))")
"1 (yes)"
>>> label_value("GCATACCGAAAGGTCTGC (((.(((....))).)))")
"0 (no)"
>>> label_value("GACATCCGAAAGGAGGTC (((.(((....))).)))")
"0 (no)"
>>> label_value("GCACCTCGAAAGAGATGC (((.(((....))).)))")
"0 (no)"
>>> label_value("GATCCTTGGAGGATC ((((((...))))))")
"0 (no)"
>>> label_value("GTCCGCGAAAGCGATGAC ((((((....)))..)))")
"1 (yes)"
>>> label_value("GAGCATGGAAACATACTC (((.(((....))).)))")
"0 (no)"
>>> label_value("GATCCGTGTCCGGATC ((((((....))))))")
"0 (no)"
>>> label_value("GATCAAACCCTTGATC ((((((....))))))")
"0 (no)"
>>> label_value("GCGACCCGTCGC ((((....))))")
"0 (no)"
>>> label_value("GCAACCGAAAGGTCCTGC ((((((....)))..)))")
"1 (yes)"
>>> label_value("GATCAGTGCCCTGATC ((((((....))))))")
"0 (no)"
>>> label_value("GCAGAGCGAAAGCACAGC ((.(.((....)).).))")
"1 (yes)"
>>> label_value("GGATGCGAAAGCAATCC ((((((....))).)))")
"0 (no)"
>>> label_value("GCCGTCGAAAGACACGGC ((((((....)))..)))")
"0 (no)"
>>> label_value("GTTCGAGGAAACCCGAAC (((((.(....).)))))")
"0 (no)"
>>> label_value("GTTCGACCGAAAGGTAAC (((..(((....))))))")
"1 (yes)"
>>> label_value("GATCTTCCTAAAGATC ((((((....))))))")
"0 (no)"
>>> label_value("GGCATAGGAAACTATACC ((.((((....)))).))")
"1 (yes)"
>>> label_value("GCGAGTGTCGC ((((...))))")
"1 (yes)"
>>> label_value("GACGCCGAAAGGCCCGTC ((((((....)))..)))")
"1 (yes)"
>>> label_value("GCATCTGGAAACGGATGC (((((.(....).)))))")
"0 (no)"
>>> label_value("GATCATGTTGATGATC ((((((....))))))")
"0 (no)"
>>> label_value("GCTACAACGAAAGTTAGC (((..(((....))))))")
"1 (yes)"
>>> label_value("GTGCTTCGAAAGAACCAC (((.(((....))).)))")
"0 (no)"
>>> label_value("GCGATATATCGC ((((....))))")
"0 (no)"
>>> label_value("GATCTATTAATAGATC ((((((....))))))")
"0 (no)"
>>> label_value("AATCTGAAAAGATT (((((....)))))")
"1 (yes)"
>>> label_value("GACCACGAAAGTGTCGTC ((((((....)))..)))")
"1 (yes)"
>>> label_value("GATCCGACGTCGGATC ((((((....))))))")
"0 (no)"
>>> label_value("GCCTTGCGAAAGCGAAGC ((.(.((....)).).))")
"1 (yes)"
>>> label_value("GCATTCGGAAACGAGTGC (((.(((....))).)))")
"0 (no)"

All values here come from the array DNA melting data of Ke et al. (doi:10.1101/2024.01.08.574731).
